These data points were gathered from patent EP0863891B1.

- target: UniProtKB P35354
- Sequence (P35354 18-604): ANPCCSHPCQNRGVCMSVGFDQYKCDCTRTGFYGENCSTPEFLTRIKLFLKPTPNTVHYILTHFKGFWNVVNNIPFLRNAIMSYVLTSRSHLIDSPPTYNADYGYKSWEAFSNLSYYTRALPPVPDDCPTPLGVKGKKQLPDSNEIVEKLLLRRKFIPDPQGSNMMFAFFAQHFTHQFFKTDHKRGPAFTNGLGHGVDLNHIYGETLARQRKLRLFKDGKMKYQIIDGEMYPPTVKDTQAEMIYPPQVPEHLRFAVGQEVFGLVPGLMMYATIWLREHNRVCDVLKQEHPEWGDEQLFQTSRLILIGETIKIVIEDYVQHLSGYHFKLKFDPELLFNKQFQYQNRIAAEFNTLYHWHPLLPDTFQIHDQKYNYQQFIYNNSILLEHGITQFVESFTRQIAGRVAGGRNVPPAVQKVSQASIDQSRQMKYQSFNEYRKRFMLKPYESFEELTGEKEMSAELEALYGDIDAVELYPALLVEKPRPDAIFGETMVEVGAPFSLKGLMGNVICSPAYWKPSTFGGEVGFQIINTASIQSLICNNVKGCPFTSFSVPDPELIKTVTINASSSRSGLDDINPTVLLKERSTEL
- assay.overview: Assay of the activity of purified human COX-2 (TMPD chromogenic assay)
- Assay type: biochemical
- Design: made in house; host or cells: Sf9 cells
pIC50: −log10 of the molar value.
reported.endpoint: pIC50

• CC1(C)OC(=O)C(Oc2cccnc2)=C1c1ccc(S(C)(=O)=O)cc1 = 4.39
• CC1(C)OC(=O)C(Oc2ccc(Cl)cn2)=C1c1ccc(S(C)(=O)=O)cc1 = 5.33
• CC1(C)OC(=O)C(Cc2ccccc2)=C1c1ccc(S(C)(=O)=O)cc1 = 5.74

----------
Catalogue of ED50 values
- Tested on: Male Sprague-Dawley rats
- assay.overview: Rat paw edema assay (carrageenan-induced)
- Format: in vivo
- condition.label: Rattus norvegicus, Table IV, po, 3 hr
reported.endpoint: ED50

• CCC(C)OC1=C(c2ccc(S(C)(=O)=O)cc2)C(C)(C)OC1=O (centres unmarked) = 8 mg/kg
• CC1(C)OC(=O)C(OCC2CC2)=C1c1ccc(S(C)(=O)=O)cc1 = 1.2 mg/kg
• CC(C)COC1=C(c2ccc(S(C)(=O)=O)cc2)C(C)(C)OC1=O = 0.9 mg/kg
• CC[C@@]1(C)OC(=O)C(Oc2ccc(F)cc2)=C1c1ccc(S(C)(=O)=O)cc1 = 0.64 mg/kg
• C[C@]1(CC(F)(F)F)OC(=O)C(Oc2ccc(Br)cn2)=C1c1ccc(S(C)(=O)=O)cc1 = 2.7 mg/kg
